Recorded Kd by entry
Biological target: T1, plasminogen-depleted human fibrinogen (human, UniProt P02671-2 20-644; P02675 31-491; P02679-2 27-437)
T1 construct: fibrinogen alpha chain, human; fibrinogen beta chain, human; fibrinogen gamma chain, human; also called Fg; source: bought: Calbiochem (through VWR International)
T1 sequence (looked up) 1: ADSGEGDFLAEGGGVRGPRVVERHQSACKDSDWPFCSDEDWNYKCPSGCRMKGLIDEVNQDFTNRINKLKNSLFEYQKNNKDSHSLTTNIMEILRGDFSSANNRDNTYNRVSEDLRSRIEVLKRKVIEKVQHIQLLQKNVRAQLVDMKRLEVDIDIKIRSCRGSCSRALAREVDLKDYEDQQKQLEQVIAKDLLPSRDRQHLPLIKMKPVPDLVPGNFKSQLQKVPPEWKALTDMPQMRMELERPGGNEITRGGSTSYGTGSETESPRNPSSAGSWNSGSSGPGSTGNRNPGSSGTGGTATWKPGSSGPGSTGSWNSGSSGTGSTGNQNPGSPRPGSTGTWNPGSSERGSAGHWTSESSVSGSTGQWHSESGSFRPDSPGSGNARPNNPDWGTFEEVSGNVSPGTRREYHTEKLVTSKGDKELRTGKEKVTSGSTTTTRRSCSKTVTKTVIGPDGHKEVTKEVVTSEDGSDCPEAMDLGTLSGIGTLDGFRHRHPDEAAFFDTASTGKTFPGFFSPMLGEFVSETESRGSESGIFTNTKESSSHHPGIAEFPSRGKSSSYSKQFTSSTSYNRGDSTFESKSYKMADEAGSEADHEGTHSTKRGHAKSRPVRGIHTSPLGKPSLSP
T1 sequence (looked up) 2: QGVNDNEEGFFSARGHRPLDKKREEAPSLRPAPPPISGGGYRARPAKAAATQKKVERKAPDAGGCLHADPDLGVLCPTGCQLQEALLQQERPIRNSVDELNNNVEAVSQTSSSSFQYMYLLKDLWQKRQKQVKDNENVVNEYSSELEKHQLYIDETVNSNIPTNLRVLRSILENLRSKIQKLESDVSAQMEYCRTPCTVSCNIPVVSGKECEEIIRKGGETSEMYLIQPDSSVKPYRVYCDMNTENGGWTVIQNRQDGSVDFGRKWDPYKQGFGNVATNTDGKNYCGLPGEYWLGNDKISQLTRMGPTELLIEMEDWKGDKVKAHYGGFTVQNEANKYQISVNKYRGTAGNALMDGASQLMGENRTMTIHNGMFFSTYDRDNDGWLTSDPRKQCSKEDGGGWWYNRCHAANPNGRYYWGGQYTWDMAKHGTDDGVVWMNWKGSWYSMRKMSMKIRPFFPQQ
T1 sequence (looked up) 3: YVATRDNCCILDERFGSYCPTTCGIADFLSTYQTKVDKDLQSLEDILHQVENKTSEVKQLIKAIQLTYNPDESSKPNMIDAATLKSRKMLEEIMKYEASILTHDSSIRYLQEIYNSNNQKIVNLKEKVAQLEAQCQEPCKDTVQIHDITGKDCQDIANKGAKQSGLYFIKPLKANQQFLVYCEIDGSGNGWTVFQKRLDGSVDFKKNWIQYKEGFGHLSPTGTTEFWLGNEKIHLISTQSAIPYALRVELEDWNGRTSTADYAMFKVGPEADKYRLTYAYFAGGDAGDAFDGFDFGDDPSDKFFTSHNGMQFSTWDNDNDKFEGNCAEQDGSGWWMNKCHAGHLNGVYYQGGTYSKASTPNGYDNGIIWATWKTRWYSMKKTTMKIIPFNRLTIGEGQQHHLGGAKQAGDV
Experiment: ELISA; dose-dependent plate binding assay on immobilised fibrinogen or fibronectin; His6-tagged synthetic peptides serially diluted 1:2 from 40 μM to 0.625 μM; absorbance at 600 nm; apparent Kd by non-linear regression (GraphPad Prism)
Conditions: both partners purified
outcome.measure: Kd

>>> val("QGALQHLLAGLWIQTEISPNSGDI (Tp0751 (pallilysin), Treponema pallidum subsp. pallidum; its central four residues LWIQ (126-129) are printed; also called peptide 6; source: synthetic peptide; not shown: His6, N-terminal, kept) [Tp0751 synthetic peptide p6]")
"10.5 µM"
>>> val("RKTVSFLTRNTAISSIRRRLEVTF (Tp0751 (pallilysin), Treponema pallidum subsp. pallidum; Its composition equals that of the printed scrambled peptide p10scr2; also called peptide 10; source: synthetic peptide; not shown: His6, N-terminal, kept) [Tp0751 synthetic peptide p10]")
"1.6 µM"
>>> val("GGAAQTHTQPPVQTAMRIALWNRA (Tp0751 (pallilysin), Treponema pallidum subsp. pallidum; its central four residues PVQT (98-101) are printed; also called peptide 4; source: synthetic peptide; not shown: His6, N-terminal, kept) [Tp0751 synthetic peptide p4]")
"6.9 µM"
>>> val("SIRRRLEVTFESHEVIHVRAVEDV (Tp0751 (pallilysin), Treponema pallidum subsp. pallidum; shares its first 10 residues (with the arginine triplet) with p10; source: synthetic peptide; not shown: His6, N-terminal, kept) [Tp0751 synthetic peptide p11]")
"9.2 µM"
